target: 5-hydroxytryptamine receptor 2C (Homo sapiens); test: Agonist activity at recombinant human unedited 5HT2C receptor isoform INI expressed in Flp-In-293 cells assessed as increase in calcium influx measured for 300 secs by Fluo-4 dye based FLIPR assay relative to control; assay type: functional, cell-based
Below, each entry is listed alongside its reported Emax.
The response must be a number in % with no trailing unit.

| MOLECULE | TESTED_TARGET | MEASURED_QUANTITY | RECORDED_MEASUREMENT |
| --- | --- | --- | --- |
| NCC1C(c2ccccc2)C1(F)F (racemic) | 5-hydroxytryptamine receptor 2C (Homo sapiens) | Emax | 82 |
| Cl.NC[C@H]1C[C@]1(F)c1ccccc1Br | 5-hydroxytryptamine receptor 2C (Homo sapiens) | Emax | 71 |
| NC[C@H]1C[C@]1(F)c1ccccc1 | 5-hydroxytryptamine receptor 2C (Homo sapiens) | Emax | 98 |
| COc1ccccc1CNCC1CC1(F)c1cc(F)ccc1OC (racemic) | 5-hydroxytryptamine receptor 2C (Homo sapiens) | Emax | 103 |
| COc1ccc(F)cc1C1(F)CC1CN (racemic) | 5-hydroxytryptamine receptor 2C (Homo sapiens) | Emax | 90 |
| Cc1cccc([C@@]2(F)C[C@@H]2CN)c1.Cl | 5-hydroxytryptamine receptor 2C (Homo sapiens) | Emax | 96 |
| NC[C@H]1C[C@]1(F)c1cccc(Cl)c1 | 5-hydroxytryptamine receptor 2C (Homo sapiens) | Emax | 110 |
| CNC[C@H]1C[C@]1(F)c1ccccc1 | 5-hydroxytryptamine receptor 2C (Homo sapiens) | Emax | 96 |
| Cl.NC[C@@H]1C[C@@]1(F)c1cccc(Cl)c1 | 5-hydroxytryptamine receptor 2C (Homo sapiens) | Emax | 92 |
| Cc1cccc([C@]2(F)C[C@H]2CN)c1.Cl | 5-hydroxytryptamine receptor 2C (Homo sapiens) | Emax | 97 |

I am curious: what Emax value has been reported for `NC[C@@H]1C[C@@]1(F)c1ccccc1` ?
87

I am curious: what Emax value has been reported for `COc1ccccc1CNC[C@H]1C[C@]1(F)c1ccccc1` ?
85

I am curious: what Emax value has been reported for `NC[C@H]1C[C@]1(F)c1cccc(F)c1` ?
107

---

Below, each entry is listed alongside its reported EC50.
target: 5-hydroxytryptamine receptor 2C (Homo sapiens, UniProt P28335); test: Agonist activity at recombinant human unedited 5HT2C receptor isoform INI expressed in Flp-In-293 cells assessed as increase in calcium influx measured for 300 secs by Fluo-4 dye based FLIPR assay
Sequence (P28335 whole entry, canonical isoform): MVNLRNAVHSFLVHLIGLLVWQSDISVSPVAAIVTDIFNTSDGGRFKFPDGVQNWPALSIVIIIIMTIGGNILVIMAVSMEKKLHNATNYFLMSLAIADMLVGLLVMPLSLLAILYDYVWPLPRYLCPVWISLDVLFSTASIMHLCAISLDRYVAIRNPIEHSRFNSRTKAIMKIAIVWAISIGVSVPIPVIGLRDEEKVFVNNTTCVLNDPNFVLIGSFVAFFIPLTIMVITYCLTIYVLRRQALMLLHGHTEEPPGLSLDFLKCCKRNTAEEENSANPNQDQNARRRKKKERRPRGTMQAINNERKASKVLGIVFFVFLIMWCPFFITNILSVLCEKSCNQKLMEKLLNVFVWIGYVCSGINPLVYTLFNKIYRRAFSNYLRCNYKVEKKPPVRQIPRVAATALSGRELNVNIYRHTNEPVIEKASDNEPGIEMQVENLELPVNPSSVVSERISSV
The response must be a number in nM with no trailing unit.

Some solved cases for reference:
| COMPOUND | UNITS_TEXT | EC50 |
| --- | --- | --- |
| NCC1C(c2ccccc2)C1(F)F (racemic) | nM | 4430 |
| CNC[C@H]1C[C@]1(F)c1ccccc1 | nM | 291 |
| COc1ccccc1CNCC1CC1(F)c1cc(F)ccc1OC (racemic) | nM | 229 |
| COc1ccc(F)cc1C1(F)CC1CN (racemic) | nM | 598 |

I am curious: what EC50 value has been reported for `Cl.NC[C@@H]1C[C@@]1(F)c1cccc(Cl)c1` ?
1060

I am curious: what EC50 value has been reported for `NC[C@H]1C[C@]1(F)c1cccc(Cl)c1` ?
12

I am curious: what EC50 value has been reported for `NC[C@H]1C[C@]1(F)c1ccccc1` ?
4.7

I am curious: what EC50 value has been reported for `Cl.NC[C@H]1C[C@]1(F)c1ccccc1Br` ?
312

I am curious: what EC50 value has been reported for `Cc1cccc([C@@]2(F)C[C@@H]2CN)c1.Cl` ?
8

I am curious: what EC50 value has been reported for `Cc1cccc([C@]2(F)C[C@H]2CN)c1.Cl` ?
5250

---

Below, each entry is listed alongside its reported Emax at 5 min.
target: 5-HT2A receptor (Homo sapiens); assay: Agonist activity at recombinant human 5HT2A receptor expressed in Flp-In-293 cells assessed as increase in calcium influx measured for 300 secs by Fluo-4 dye based FLIPR assay relative to control; assay type: cell-based; conditions: Flp-In-293 cells expressing recombinant human 5HT2A receptor
Sequence (P28223 whole entry): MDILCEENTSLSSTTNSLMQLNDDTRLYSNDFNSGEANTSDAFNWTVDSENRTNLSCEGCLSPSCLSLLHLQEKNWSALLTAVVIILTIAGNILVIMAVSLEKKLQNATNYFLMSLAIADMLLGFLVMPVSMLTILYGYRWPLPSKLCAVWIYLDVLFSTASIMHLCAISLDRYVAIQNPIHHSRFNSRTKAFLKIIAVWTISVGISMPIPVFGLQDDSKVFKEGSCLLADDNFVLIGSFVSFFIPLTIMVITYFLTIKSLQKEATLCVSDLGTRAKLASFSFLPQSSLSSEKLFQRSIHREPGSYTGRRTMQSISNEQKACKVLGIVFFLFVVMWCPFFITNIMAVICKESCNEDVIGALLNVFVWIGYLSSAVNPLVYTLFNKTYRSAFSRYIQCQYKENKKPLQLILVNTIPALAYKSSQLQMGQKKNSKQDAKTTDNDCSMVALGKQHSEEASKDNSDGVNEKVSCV
The response must be a number in % with no trailing unit.

I am curious: what Emax at 5 min value has been reported for NCC1C(c2ccccc2)C1(F)F (racemic) ?
43

---

target: UniProtKB P28223; experiment: Agonist activity at recombinant human 5HT2A receptor expressed in Flp-In-293 cells assessed as increase in calcium influx measured for 300 secs by Fluo-4 dye based FLIPR assay
MEASURED_QUANTITY: log10 of EC50 (log10 of the value in nM)
Please note: log10 values; quantity EC50; unit nM.

Some solved cases for reference:
| COMPOUND | log10 of EC50 |
| --- | --- |
| NCC1C(c2ccccc2)C1(F)F (racemic) | 3.57 |
| Cc1cccc([C@@]2(F)C[C@@H]2CN)c1.Cl | 2.21 |
| COc1ccccc1CNC[C@H]1C[C@]1(F)c1ccccc1 | 2.51 |
| NC[C@H]1C[C@]1(F)c1cccc(Cl)c1 | 1.36 |

I am curious: what log10 of EC50 value has been reported for COc1ccccc1CNCC1CC1(F)c1cc(F)ccc1OC (racemic) ?
1.49

I am curious: what log10 of EC50 value has been reported for `CNC[C@H]1C[C@]1(F)c1ccccc1` ?
2.19

I am curious: what log10 of EC50 value has been reported for COc1ccc(F)cc1C1(F)CC1CN (racemic) ?
2.55

---

Below, each entry is listed alongside its reported Emax at 5 min.
molecular target: 5-HT2B receptor (Homo sapiens, UniProt P41595); experiment: Agonist activity at recombinant human 5HT2B receptor expressed in Flp-In-293 cells assessed as increase in calcium influx measured for 300 secs by Fluo-4 dye based FLIPR assay relative to control; type: cell-based; settings: Flp-In-293 cells expressing recombinant human 5HT2B receptor
Sequence (P41595 whole entry): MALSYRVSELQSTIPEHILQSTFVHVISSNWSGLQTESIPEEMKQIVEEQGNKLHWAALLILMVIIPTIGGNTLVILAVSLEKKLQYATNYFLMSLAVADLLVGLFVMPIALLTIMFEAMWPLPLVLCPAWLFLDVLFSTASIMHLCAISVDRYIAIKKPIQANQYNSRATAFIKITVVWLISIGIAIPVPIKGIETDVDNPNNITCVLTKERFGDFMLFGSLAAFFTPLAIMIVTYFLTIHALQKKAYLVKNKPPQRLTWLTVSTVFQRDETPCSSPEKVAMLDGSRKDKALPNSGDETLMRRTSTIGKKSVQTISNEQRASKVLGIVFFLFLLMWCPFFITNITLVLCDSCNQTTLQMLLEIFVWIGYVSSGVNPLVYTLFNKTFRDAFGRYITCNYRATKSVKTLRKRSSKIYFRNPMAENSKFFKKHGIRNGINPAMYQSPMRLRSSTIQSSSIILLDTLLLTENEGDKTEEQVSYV
The response must be a number in % with no trailing unit.

| COMPOUND | MEASURED_QUANTITY | UNITS_TEXT | RECORDED_MEASUREMENT |
| --- | --- | --- | --- |
| NC[C@H]1C[C@]1(F)c1ccccc1 | Emax at 5 min | % | 104 |
| COc1ccccc1CNC[C@H]1C[C@]1(F)c1ccccc1 | Emax at 5 min | % | 27 |
| CNC[C@H]1C[C@]1(F)c1ccccc1 | Emax at 5 min | % | 42 |
| NC[C@H]1C[C@]1(F)c1cccc(F)c1 | Emax at 5 min | % | 106 |
| COc1ccccc1CNCC1CC1(F)c1cc(F)ccc1OC (racemic) | Emax at 5 min | % | 61 |
| NC[C@@H]1C[C@@]1(F)c1ccccc1 | Emax at 5 min | % | 77 |

I am curious: what Emax at 5 min value has been reported for `NC[C@H]1C[C@]1(F)c1cccc(Cl)c1` ?
91

I am curious: what Emax at 5 min value has been reported for COc1ccc(F)cc1C1(F)CC1CN (racemic) ?
79

I am curious: what Emax at 5 min value has been reported for NCC1C(c2ccccc2)C1(F)F (racemic) ?
62

---

target: 5-hydroxytryptamine receptor 2B (Homo sapiens); assay: Agonist activity at recombinant human 5HT2B receptor expressed in Flp-In-293 cells assessed as increase in calcium influx measured for 300 secs by Fluo-4 dye based FLIPR assay; type: cell-based; details: read-out: EC50
Below, each entry is listed alongside its reported EC50.
The response must be a number in nM with no trailing unit.

| COMPOUND | TESTED_TARGET | EC50 / nM |
| --- | --- | --- |
| COc1ccccc1CNC[C@H]1C[C@]1(F)c1ccccc1 | 5-hydroxytryptamine receptor 2B (Homo sapiens) | 363 |
| NCC1C(c2ccccc2)C1(F)F (racemic) | 5-hydroxytryptamine receptor 2B (Homo sapiens) | 2350 |
| CNC[C@H]1C[C@]1(F)c1ccccc1 | 5-hydroxytryptamine receptor 2B (Homo sapiens) | 565 |
| NC[C@H]1C[C@]1(F)c1cccc(Cl)c1 | 5-hydroxytryptamine receptor 2B (Homo sapiens) | 22 |
| COc1ccc(F)cc1C1(F)CC1CN (racemic) | 5-hydroxytryptamine receptor 2B (Homo sapiens) | 116 |

I am curious: what EC50 value has been reported for `NC[C@H]1C[C@]1(F)c1cccc(F)c1` ?
2

I am curious: what EC50 value has been reported for `NC[C@H]1C[C@]1(F)c1ccccc1` ?
10

I am curious: what EC50 value has been reported for COc1ccccc1CNCC1CC1(F)c1cc(F)ccc1OC (racemic) ?
285

I am curious: what EC50 value has been reported for `NC[C@@H]1C[C@@]1(F)c1ccccc1` ?
903

---

biological target: UniProt:P41595; test: Agonist activity at recombinant human 5HT2B receptor expressed in Flp-In-293 cells assessed as increase in calcium influx up to 10 uM measured for 300 secs by Fluo-4 dye based FLIPR assay; format: cell-based; settings: flp-in-293, 5 min
MEASURED_QUANTITY: Activity

Some solved cases for reference:
| MOL_SMILES | Activity |
| --- | --- |
| Cl.NC[C@@H]1C[C@@]1(F)c1ccccc1Br | Not Active |
| Cc1cccc([C@]2(F)C[C@H]2CN)c1.Cl | Not Active |
| Cl.NC[C@@H]1C[C@@]1(F)c1cccc(F)c1 | Not Active |
| Cl.NC[C@H]1C[C@]1(F)c1ccccc1Br | Not Active |
| Cc1cccc([C@@]2(F)C[C@@H]2CN)c1.Cl | Not Active |

Query compound follows.
I am curious: what Activity value has been reported for `Cl.NC[C@@H]1C[C@@]1(F)c1cccc(Cl)c1` ?
Not Active
